# key: entry, value: ratio over background, IGF-1R
# assay.target: T1, Soluble IGF-1R (UniProt P08069 31-935, limits assumed)
# T1 construct: extracellular domain; Bought reagent; also called sIGF-1R; insulin-like growth factor receptor
Positions of bridges follow the written chain, without caps; N, C: chain ends. No end group written: not given here.
// return numeric value only (unit: ratio over background, not printed)

RCGDEEGWQENRRDDPFYHKLSELFGGC (disulfide 2-28 (inferred); not fully specified (N-terminus, C-terminus)) [B6Hα-3-ES-IR] ... 2.9
GCITAENGAGDPFYHKLSELGGCS (disulfide 2-23 (inferred); not fully specified (N-terminus, C-terminus)) [B6Hα-1-23-IR] ... 3.2
CSMAAVAEAGDDDDPFYHKLSELCQGS [B6Hα-3-F1-IR] ... 2.4
MNVFVSFYDAIDQLVCQRIGC (not fully specified (N-terminus, C-terminus, bridges); cysteine pairing not given here) [20E2A-4-G11-IGFR] ... 3.3

Now, please, on to the next binder.
Lab note: CGAKMTGTPNDPFYHKLSELLQRG [B6Hα-3-E6-IR] gave ratio over background, IGF-1R of 2.3
